- Tested on: RAW264.7
- experimental-protocol: Anti-inflammatory activity in mouse RAW264.7 assessed as decrease in LPS-induced COX-2 mRNA expression at 62.5 uM incubated for 16 hrs by RT-PCR analysis
- Type: functional, cell-based
The source made the active and inactive calls. The rule behind the calls is not given here.
Return exactly one item of t for active, f for inactive

Answered examples (3):
# compound, group
measured = [
    ("COc1ccc(-c2nc(O)c3ccccc3n2)cc1", "f"),
    ("O=c1[nH]c(-c2cccc(C(F)(F)F)c2)nc2ccccc12", "f"),
    ("O=c1[nH]cnc2ncccc12", "f"),
]

Turning to the following compound.
Ask | So what was the verdict on CC(c1ccccc1)n1cnc2ccccc2c1=O (centres undefined) in this test?
Reply | t
